- MEASUREMENT NOTES: Cmax in Swiss mouse at 18.3 mg/kg, po via gavage measured up to 24 hrs by UPLC-MS analysis
- Type: ADME, organism-based
- Design: dose 18.3 mg/kg, route oral
- EXPERIMENTAL SETUP: in vivo
RECORDED METRIC: Cmax (µM)
Unit µM implied. Number only.

Problem: Please look up its Cmax: `Cc1c(Cc2ccc(C(F)(F)F)nc2)c[nH]c1C(=O)NC1CC1`
Result: 8.4

* * *

- TEST TARGET: Albumin (Homo sapiens, UniProt P02768)
- Sequence (P02768 whole entry): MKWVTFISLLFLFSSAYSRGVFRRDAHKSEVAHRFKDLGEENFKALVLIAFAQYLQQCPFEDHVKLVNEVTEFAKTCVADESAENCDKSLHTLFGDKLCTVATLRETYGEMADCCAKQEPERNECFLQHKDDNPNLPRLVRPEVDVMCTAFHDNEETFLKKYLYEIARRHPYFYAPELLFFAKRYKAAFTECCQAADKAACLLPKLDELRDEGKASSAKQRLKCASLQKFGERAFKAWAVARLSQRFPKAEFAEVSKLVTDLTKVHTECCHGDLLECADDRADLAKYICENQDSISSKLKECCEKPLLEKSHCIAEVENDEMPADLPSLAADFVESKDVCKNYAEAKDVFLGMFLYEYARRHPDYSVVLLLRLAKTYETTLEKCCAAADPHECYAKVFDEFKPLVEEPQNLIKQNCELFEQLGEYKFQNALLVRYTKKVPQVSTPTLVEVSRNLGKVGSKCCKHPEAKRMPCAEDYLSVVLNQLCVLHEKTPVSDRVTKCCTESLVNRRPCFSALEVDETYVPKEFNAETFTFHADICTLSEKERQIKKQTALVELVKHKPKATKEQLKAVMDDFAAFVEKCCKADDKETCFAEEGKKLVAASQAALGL
- MEASUREMENT NOTES: Binding affinity to albumin (unknown origin) by chromatographic method
- Type: ADME
- EXPERIMENTAL SETUP: albumin, read-out: PB (converted)
RECORDED METRIC: fraction unbound
Respond numerically, and do not add a unit to the figure.

Cc1c(Cc2ccc(C(F)(F)F)cc2F)c[nH]c1C(=O)NC1CC1 | 0.03
O=C(NC1CC1)c1cc(Cc2ccc(C(F)(F)F)nc2)c[nH]1 | 0.333
Cc1[nH]c(C(=O)NC2CC2)c(C)c1C(=O)c1ccc(C(F)(F)F)cn1 | 0.496
Cc1[nH]c(C(=O)N2CCCC2)cc1Cc1ccc(C(F)(F)F)nc1 | 0.185
Cc1c(Cc2ccc(C(F)(F)F)nc2)c[nH]c1C(=O)NCC(F)(F)F | 0.181
Cc1[nH]c(C(=O)NC2CC2)cc1Cc1ccc(C(F)(F)F)nc1 | 0.274

Problem: Quick check: fraction unbound of `Cc1c(Cc2ccc(C(F)(F)F)nc2)c[nH]c1C(=O)NC1CCC1` ?
Result: 0.165

Problem: Entry Cc1c(C(O)c2ccc(C(F)(F)F)nc2)c[nH]c1C(=O)NC1CC1 (racemic) : reported fraction unbound = ?
Result: 0.105

Problem: // query fraction unbound value for entry `Cc1c(Cc2ccc(C(F)(F)F)nc2)c[nH]c1C(=O)N1CCC1`
Result: 0.341

Problem: Param item = `CCOC(=O)c1[nH]c(C)c(Cc2ccc(C(F)(F)F)nc2)c1C` ; retrieve measured fraction unbound.
Result: 0.064

Problem: Please give the measured fraction unbound for this molecule: `Cc1c(Cc2ccc(C(F)(F)F)cc2)c[nH]c1C(=O)NC1CC1`
Result: 0.029

Problem: Looking for the measured fraction unbound of `Cc1[nH]c(C(=O)N2CCC2)c(C)c1Cc1ccc(C(F)(F)F)nc1` , can you help?
Result: 0.228

Problem: Return reported fraction unbound; argument: `Cc1c(Cc2ccc(C(F)(F)F)cc2Cl)c[nH]c1C(=O)NC1CC1`
Result: 0.019

Problem: // returns reported fraction unbound for input `CCNC(=O)c1[nH]c(C)c(Cc2ccc(C(F)(F)F)nc2)c1C`
Result: 0.229

Problem: Given `Cc1[nH]c(C(=O)NC2CC2)cc1Cc1cnc(C(F)(F)F)nc1` , state its recorded fraction unbound.
Result: 0.555

Problem: Returns the measured fraction unbound for the input molecule. Input: `Cc1[nH]c(C(=O)NC2CC2)c(C)c1Cc1ccc(C(F)(F)F)nc1`
Result: 0.172

* * *

- TEST TARGET: CYP3A4/5 (Homo sapiens, UniProt P08684+P20815)
- MEASUREMENT NOTES: in vitro
- EXPERIMENTAL SETUP: liver microsomes, probe midazolam
RECORDED METRIC: IC50

Problem: Which measured IC50 value corresponds to `Cc1c(Cc2ccc(C(F)(F)F)nc2)c[nH]c1C(=O)NC1CC1` ?
Result: > 20 µM

* * *

- MEASUREMENT NOTES: Protein binding in DMEM medium containing 10% fetal calf serum by LC-MS analysis based ultracentrifugation assay
- Format: ADME, cell-free, Bos taurus
- EXPERIMENTAL SETUP: cattle, DMEM medium containing 10% fetal calf serum; read-out: PB (converted)
RECORDED METRIC: fraction unbound
The response must contain the number and no unit.

Problem: Looking for the measured fraction unbound of `Cc1c(Cc2ccc(C(F)(F)F)nc2)c[nH]c1C(=O)NC1CC1` , can you help?
Result: 0.685

* * *

- MEASUREMENT NOTES: physchem
- EXPERIMENTAL SETUP: fasted state simulated intestinal fluid, pH 6.5
RECORDED METRIC: solubility
Please make sure the unit comes right after the number.

Problem: Please look up its solubility: `Cc1cc(Nc2ccc(S(F)(F)(F)(F)F)cc2)n2nc(C(C)(F)F)nc2n1`
Result: 5.1 µg/mL

* * *

- MEASUREMENT NOTES: fAUC in Plasmodium falciparum 3D70087/N9 infected po dosed NOD-SCID IL2Rgamma null mouse blood administered once daily for 4 days
- Format: ADME, organism-based
- EXPERIMENTAL SETUP: in vivo, 96 h
RECORDED METRIC: fAUC (ng·h/mL)
Reply numerically in ng·h/mL, unit not repeated.

Cc1cc(Nc2ccc(C(F)(F)F)nc2)n2nc(C(C)(F)F)nc2n1 | 250

Problem: # input molecule: `Cc1c(Cc2ccc(C(F)(F)F)nc2)c[nH]c1C(=O)NC1CC1` ; wanted: its fAUC
Result: 1100

* * *

- MEASUREMENT NOTES: Cmax in Swiss mouse blood at 50 mg/kg, po via gavage measured up to 24 hrs by UPLC-MS analysis
- Assay type: ADME, organism-based
- Parameters: dose 50 mg/kg, route oral
- EXPERIMENTAL SETUP: in vivo
RECORDED METRIC: Cmax (µM)
Response body: numeric value in µM, unit text excluded.

Problem: What does the record list as Cmax for `Cc1c(Cc2ccc(C(F)(F)F)nc2)c[nH]c1C(=O)NC1CC1` ?
Result: 33.8

* * *

- MEASUREMENT NOTES: AUC (0 to 23 hrs) in NOD-SCID IL2Rgamma null mouse blood infected with Plasmodium falciparum 3D70087/N9 at 50 mg/kg, po qd for 4 days starting from 3 days post infection and measured after 24 hrs post dose by LC-MS/MS analysis
- Type: ADME, organism-based
- Design: dose 50 mg/kg, time < 23 hr, route oral
RECORDED METRIC: AUC at 23 h (µM·h)
Value expressed in µM·h; do not type the unit.

Problem: Request the reported AUC at 23 h associated with `Cc1c(Cc2ccc(C(F)(F)F)nc2)c[nH]c1C(=O)NC1CC1`
Result: 26.7

* * *

- MEASUREMENT NOTES: Protein binding in mouse plasma by LC-MS analysis based ultracentrifugation assay
- Type: ADME, cell-free
- EXPERIMENTAL SETUP: read-out: PPB (converted)
RECORDED METRIC: fraction unbound

Problem: // fraction unbound lookup, key: `Cc1c(Cc2ccc(C(F)(F)F)nc2)c[nH]c1C(=O)NC1CC1`
Result: 0.111

* * *

- TEST TARGET: Voltage-gated inwardly rectifying potassium channel KCNH2 (Homo sapiens)
- Sequence (Q12809 whole entry): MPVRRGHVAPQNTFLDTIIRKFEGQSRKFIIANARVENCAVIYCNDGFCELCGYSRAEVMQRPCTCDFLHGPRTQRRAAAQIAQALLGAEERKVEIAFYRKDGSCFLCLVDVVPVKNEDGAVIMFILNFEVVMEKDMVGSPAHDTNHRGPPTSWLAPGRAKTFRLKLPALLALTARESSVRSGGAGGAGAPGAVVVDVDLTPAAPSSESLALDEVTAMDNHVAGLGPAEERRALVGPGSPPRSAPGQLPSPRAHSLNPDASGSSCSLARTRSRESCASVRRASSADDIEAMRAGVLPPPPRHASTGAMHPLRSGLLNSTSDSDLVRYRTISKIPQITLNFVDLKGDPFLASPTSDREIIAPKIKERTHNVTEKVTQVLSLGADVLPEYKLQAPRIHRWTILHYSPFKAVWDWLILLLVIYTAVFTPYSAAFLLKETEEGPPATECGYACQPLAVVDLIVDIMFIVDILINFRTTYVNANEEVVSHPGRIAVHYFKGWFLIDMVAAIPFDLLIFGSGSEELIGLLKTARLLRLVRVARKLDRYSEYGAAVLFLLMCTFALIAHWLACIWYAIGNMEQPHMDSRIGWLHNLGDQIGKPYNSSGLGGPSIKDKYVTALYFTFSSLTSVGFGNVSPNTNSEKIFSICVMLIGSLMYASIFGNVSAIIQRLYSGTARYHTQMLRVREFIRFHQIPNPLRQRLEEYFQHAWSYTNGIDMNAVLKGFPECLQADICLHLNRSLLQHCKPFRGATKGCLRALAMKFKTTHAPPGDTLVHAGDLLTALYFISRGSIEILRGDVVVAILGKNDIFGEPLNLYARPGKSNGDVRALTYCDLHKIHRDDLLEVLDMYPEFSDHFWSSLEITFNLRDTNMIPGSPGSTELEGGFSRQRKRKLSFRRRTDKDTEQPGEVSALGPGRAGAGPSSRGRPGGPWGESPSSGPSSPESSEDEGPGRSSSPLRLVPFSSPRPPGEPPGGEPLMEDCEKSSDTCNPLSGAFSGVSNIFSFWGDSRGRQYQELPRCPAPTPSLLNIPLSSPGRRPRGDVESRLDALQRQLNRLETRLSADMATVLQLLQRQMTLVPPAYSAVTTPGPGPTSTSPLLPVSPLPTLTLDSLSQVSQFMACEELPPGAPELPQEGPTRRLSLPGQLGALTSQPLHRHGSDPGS
- MEASUREMENT NOTES: Inhibition of human ERG by IonWorks patch clamp electrophysiology assay
RECORDED METRIC: EC50 (µM)
Numeric only. Scale: µM

Problem: What EC50 value was documented for this molecule, `Cc1cc(Nc2ccc(S(F)(F)(F)(F)F)cc2)n2nc(C(C)(F)F)nc2n1` ?
Result: 7

* * *

Catalogue of fraction unbound readings, one per entry.
- TEST TARGET: Albumin (Homo sapiens)
- MEASUREMENT NOTES: Binding affinity to albumin (unknown origin) in ALBUMAX medium
- Format: ADME
- EXPERIMENTAL SETUP: read-out: PB (converted)

Cc1c(Cc2ccc(C(F)(F)F)nc2)c[nH]c1C(=O)NC1CC1 | 0.482

Attention now turns to another entry.
Problem: # lookup: fraction unbound of `Cc1cc(Nc2ccc(S(F)(F)(F)(F)F)cc2)n2nc(C(C)(F)F)nc2n1`
Result: 0.169

* * *

- MEASUREMENT NOTES: in vivo
- EXPERIMENTAL SETUP: Sprague-Dawley, rat, po
RECORDED METRIC: Tmax (h)
Only the number, expressed in h, is required.

Problem: Consider the compound Cc1cc(Nc2ccc(S(F)(F)(F)(F)F)cc2)n2nc(C(C)(F)F)nc2n1 [DSM-265] and give its measured Tmax.
Result: 3.3

* * *

- MEASUREMENT NOTES: physchem
- EXPERIMENTAL SETUP: PBS, pH 7.4
RECORDED METRIC: solubility (µg/mL)
// units = µg/mL; emit number, no label

Problem: Recorded solubility for `Cc1cc(Nc2ccc(S(F)(F)(F)(F)F)cc2)n2nc(C(C)(F)F)nc2n1` , please?
Result: 2

* * *

- MEASUREMENT NOTES: Protein binding in human liver microsomes by LC-MS analysis based ultracentrifugation assay
- Type: ADME, Microsome
- EXPERIMENTAL SETUP: read-out: PB (converted)
RECORDED METRIC: fraction unbound
// return just the number, without any unit appended

Problem: # fraction unbound lookup, item `Cc1c(Cc2ccc(C(F)(F)F)nc2)c[nH]c1C(=O)NC1CC1`
Result: 0.701

Problem: Entry `Cc1cc(Nc2ccc(S(F)(F)(F)(F)F)cc2)n2nc(C(C)(F)F)nc2n1` has what fraction unbound?
Result: 0.283
